Give measured TGI for each item. Keep answers brief.
System: A498 renal
Assay: NCI tumour cell line growth inhibition, 48 h

Consider the molecule CCCCCCCCCCCCCCCCCC(=O)NCC(COP(=O)(O)O)OCC (stereo not given) and give its measured TGI.
> 100 µM

Quick one: TGI for CN1CCN(c2ccc3nc(-c4ccc(OCCCCN5CCN(CCCCN6C(=O)c7cccc8cccc(c78)C6=O)CC5)cc4)[nH]c3c2)CC1 ?
> 100 µM

Fill blank: measured TGI of the molecule O=C1CCC(=O)c2sccc2N1 is ____.
> 100 µM

Quick one: TGI for COc1ccc(-c2n/c(=C\c3c(O)[nH]c4ccccc34)cc3c2=Nc2ccccc2-3)cc1 ?
13.2 µM

GET /values?readout=TGI&item= [Cl-].[Fe+2].c1ccc(-c2ccnc3c2ccc2c(-c4ccccc4)ccnc23)cc1.c1ccc(-c2ccnc3c2ccc2c(-c4ccccc4)ccnc23)cc1.c1ccc(-c2ccnc3c2ccc2c(-c4ccccc4)ccnc23)cc1
0.39 µM

Which TGI value belongs to O=C(/C=C/c1ccco1)c1ccc(Nc2nc(Nc3ccc(F)cc3)nc(Nc3ccc(F)cc3)n2)cc1 ?
> 100 µM

Using the record for C#CCOCn1cnc2ncnc(N)c21 , report its TGI.
> 100 µM

I have this molecule here, NS(=O)(=O)c1ccc(NC(=O)c2cccc(NC3=C(Cl)C(=O)N(Cc4ccccc4)C3=O)c2)cc1 , and I need its recorded TGI.
23.7 µM

Form field: reported TGI of CCOc1cc2c(cc1O)C(N)C[C@@H]1[C@@H]2CC[C@]2(C)[C@@H](O)CC[C@@H]12 (stereo not given in full)
> 100 µM

Give the measured TGI of Cc1ccc(S(=O)(=O)Nn2c(O)c(C#N)c(-c3ccc([N+](=O)[O-])cc3)c(C#N)c2=O)cc1 .
> 100 µM

What TGI value was documented for this molecule, Cc1ccc2c(c1C)C(=O)/C(=C/c1cccc(C)c1C(=O)O)C2 ?
99.2 µM

Which value of TGI has been reported for Cc1noc(/N=C2\C=C(Nc3onc(C)c3C)C(=O)c3ccccc32)c1C in the records?
> 100 µM

Which TGI reading was recorded for the molecule CN=C(N)N/N=C(\C)c1ccc2c(c1)Cc1ccccc1-2 ?
9.21 µM

Need TGI, item CN1CCN([C@H]2C[C@H]3[C@@H]4CC=C5C[C@@H](O)CC[C@]5(C)[C@H]4CC[C@]3(C)[C@H]2O)CC1
> 100 µM

Entry COc1cc2c(cc1OCCCOc1ccc(-c3nc4ccc(N5CCN(C)CC5)cc4[nH]3)cc1)N=C[C@@H]1CCCN1C2=O has what TGI?
< 0.01 µM

====

Test system: M19-MEL melanoma
Assay: NCI tumour cell line growth inhibition, 48 h
For each of the molecules below, state its TGI.

Which TGI is reported for this molecule? COC(=O)C1c2cc3c(c(O)c2C(O)CC1(C)O)C(=O)c1c(O)cc2c(c1C3=O)OC1OC2(C)C(O)C(N(C)C)C1O (stereo unspecified)
> 100 µM

For the molecule shown here, COc1ccc2c([nH]c3c(O)c(-c4c(C)cc5c([nH]c6c(CC=C(C)C)c(OC)ccc65)c4O)c(C)cc32)c1CC=C(C)C , give the reported TGI.
> 100 µM

Please report the recorded TGI for CC(=O)Nc1ccc(-c2nnc(SCC(=O)Nc3ccc(Cl)cc3)o2)cc1 .
45.4 µM

If you can, please state the reported TGI value of N#C/C(=C\c1ccc2[nH]ccc2c1)C(=O)c1ccc(O)c(O)c1 .
> 100 µM

What TGI value was documented for this molecule, c1ccc(-c2ccnc3c2ccc2c(-c4ccccc4)ccnc23)cc1 ?
5.14 µM

Any idea what its TGI is? The molecule is CCOC(=O)CC(NC(=O)c1ccc(N=NN(C)C)cc1)C(=O)OCC (stereo unspecified)
> 100 µM

Fill in the blank: the reported TGI of CC(=O)OC(=O)O/C=C\CCl is ____.
> 100 µM

Look up TGI: CCN(CC)CCO[Si](OCCN(CC)CC)(OCCN(CC)CC)OCCN(CC)CC
> 100 µM

GET /values?readout=TGI&item= CCc1cc(Cc2ccc(C)c(NC(=O)C(=O)C3C(=O)NC(=O)NC3=O)c2CC)cc(C)c1NC(=O)C(=O)C1C(=O)NC(=O)NC1=O
> 100 µM

Sample CC1=CC(=O)NP(=O)(C23CC4CC(CC(C4)C2)C3)N1 (stereo unspecified) — what was its TGI?
> 100 µM

Give the measured TGI of Cc1ccc2nc(NC(=O)C(=O)CC(=O)c3cccc4ccccc34)sc2c1 .
> 100 µM

// lookup TGI for CC(C)[Si](OCC1CC(C#N)OC(C)(C)O1)(C(C)C)C(C)C (stereo unspecified)
76.9 µM

What measured TGI goes with C/C(=N\NS(=O)(=O)c1ccc([N+](=O)[O-])cc1)c1ccc[n+]([O-])n1 ?
5.05 µM

What value of TGI has been reported for the following molecule? O=c1[nH]cc(C(F)(C(F)(F)F)C(F)(F)F)c(=O)[nH]1
> 100 µM

What measured TGI goes with C#CCOCn1cnc2ncnc(N)c21 ?
> 100 µM

Item COc1cc(C(C#N)NNc2nc(C)cc(=O)[nH]2)cc(OC)c1OC (stereo unspecified) has what recorded TGI?
> 100 µM

====

System: SF-268 CNS
Test: NCI tumour cell line growth inhibition, 48 h
For each of the compounds below, state its TGI.

Give TGI (SF-268 CNS) of the following compound: CC/C(N)=N\NC(=O)OC(C)(C)C
> 100 µM

Give recorded TGI with SF-268 CNS for the following compound: COc1cc2ccc3ccncc3c2cc1OC
> 10 µM

Request - read-out TGI | tested on SF-268 CNS | compound Nc1c(C(=O)Nc2cccc3ccccc23)sc2nc3c(cc12)C(=O)CCC3
> 65.6 µM

Notebook: pull reported TGI for SF-268 CNS, entry O=Cc1ccc(N2CCN(c3ccc(C=O)cc3)CC2)cc1
> 100 µM

For SF-268 CNS, provide TGI of CCCCCCCCCCCCCCCCOCC(O)CO (configuration not stated) please.
36 µM

Tell me reported TGI for Cc1ccccc1NC(=O)Cc1csc(N=Nc2c(O)[nH]c3ccccc23)n1 , tested with SF-268 CNS.
> 100 µM

Return TGI measured with SF-268 CNS given this compound: COc1cc(Cn2c(-c3ccccc3)cc3c2-c2oncc2CC3)cc(OC)c1
> 100 µM

Lab note: need TGI with SF-268 CNS for entry CN1CCC2(CC1)C(=NC1CCCCC1)NC(=O)N2c1ccccc1 , please look it up.
> 100 µM

Find TGI (SF-268 CNS) for the entry CN(C)CCNC(=O)c1c(O)ccc2c1c1c(n2CCc2ccccc2)C(=O)c2ccccc2C1=O
15 µM

Checklist item: TGI tested on SF-268 CNS, entry CCOC(=O)C(C(=O)COC(C)(C)C)[C@@H]1C=C[C@H](OC(C)=O)C1 (some centres not stated) , value?
> 100 µM

Reported TGI for SF-268 CNS, given C/C(=N\NC(N)=S)c1ccc(C2CCCCC2)cc1 ?
> 100 µM

Test system SF-268 CNS; read-out TGI; what value for c1cc2c(cc1C1=NCCN1)c1cc(C3=NCCN3)ccc1n2CC1CCCCC1 ?
22.2 µM

Query for SF-268 CNS: what TGI does the record show for Cn1cc(-c2nc(N[C@@H]3CCCC[C@@H]3N)c(F)c3c2C(=O)NC3)cn1 ?
> 100 µM

Write down the reported TGI of Cc1cc(=O)oc2c(CNC(CC(C)C)C(=O)O)c(O)ccc12 (configuration not stated) , test system: SF-268 CNS.
> 100 µM

Form entry - test system: SF-268 CNS; read-out: TGI; compound: C#CCOCn1cnc2ncnc(N)c21
> 100 µM

Observed TGI on SF-268 CNS for Cn1cc(C2=C(c3cn(CCCCC(=N)N)c4ccccc34)C(=O)NC2=O)c2ccccc21 , please.
> 25 µM

Lab note: need TGI for O=C1c2cc([N+](=O)[O-])sc2C(=O)c2c([N+](=O)[O-])csc21 on SF-268 CNS, anyone have it?
0.994 µM

Please provide the recorded TGI for Cn1nc(-c2ccccc2)c(C(=O)/C=C/c2ccc(Cl)cc2)c(N2CCCC2)c1=O , tested on SF-268 CNS.
20.2 µM

// map CC(C)(C)C1=C(Br)C(OC(=O)C(F)(F)F)(C(C)(C)C)OP1(=O)c1ccccc1 (configuration not stated) to recorded TGI (system: SF-268 CNS)
> 100 µM

Request - read-out TGI | tested on SF-268 CNS | compound CN(C)/C=C/C=C(/C=N/S(=O)(=O)C(F)(F)F)C1C=CN(S(=O)(=O)C(F)(F)F)C=C1
> 100 µM

Find the measured TGI: item CN(C(=O)CNC(=O)/C=C/c1cccc(Cl)c1)C1CCS(=O)(=O)CC1 , target or system SF-268 CNS.
> 100 µM

Please tell me: TGI of O=[N+]([O-])C(C=C(n1nnc2ccccc21)n1nnc2ccccc21)=C(n1nnc2ccccc21)n1nnc2ccccc21 , system SF-268 CNS?
> 100 µM

Missing value: TGI, SF-268 CNS, entry COc1cc2c3c(cc(Cl)nc3c1OC)C(O)(CC(=O)c1ccccc1)C(=O)N2 (configuration not stated) . Fill in?
13.7 µM

Hello, I am looking for reported TGI with SF-268 CNS for C/C(=N/O)c1ccc(Nc2cc(-n3ccnc3)c3ccccc3n2)cc1 . Could you help?
> 100 µM

Any idea what TGI came out for C(=C/c1nc2ccccc2o1)/c1ccc2c(c1)OCO2 on SF-268 CNS?
> 100 µM

Provide the documented TGI with SF-268 CNS as the system for FC(F)(F)c1ccc2nc(Sc3ccc4ccccc4c3)cnc2c1
> 100 µM

What is its TGI for SF-268 CNS? Entry: CC(C)[Si](OCC1CC(C#N)OC(C)(C)O1)(C(C)C)C(C)C (configuration not stated)
82.7 µM

Enter reported TGI observed with SF-268 CNS for O=C(NOCCO)c1cc(CN2OCCCC2=O)c(F)c(F)c1Nc1ccc(I)cc1F
> 100 µM

Can you look up TGI on SF-268 CNS for COC(=O)C(C(=O)C(N)=O)c1csc(-n2nc(-c3ccccc3)cc2-c2ccccc2)n1 (configuration not stated) ?
> 31.6 µM

Could you share what TGI was measured for O=C(Nc1nc2ccccc2s1)c1cc(-c2ccc(F)cc2)n2nc(-c3ccccc3)cc2n1 , tested on SF-268 CNS?
> 100 µM

# value lookup — system SF-268 CNS, readout TGI, item CN1CCN(c2ccc3nc(-c4ccc(OCCCCN5CCN(CCCCN6C(=O)c7cccc8cccc(c78)C6=O)CC5)cc4)[nH]c3c2)CC1
> 100 µM

Field: TGI (SF-268 CNS). Entry: O=C(CCC1CCCCN1)Nc1ccc2c(c1)C(=O)c1ccc(NC(=O)CCN3CCCCC3)cc1C2=O (configuration not stated)
25.4 µM

API: value(readout= TGI, system= SF-268 CNS, query= O=[N+]([O-])/C(C(Cl)=C(Cl)Cl)=C(/Nc1ccccc1)Sc1ccccc1 )
28.2 µM

So what TGI did O=C(Nc1cccc(C(F)(F)F)c1)c1cc2ccccc2cc1O get with SF-268 CNS?
> 100 µM

Please provide the recorded TGI for CCOC(C)OC1CC(n2cc(C)c(=O)[nH]c2=O)OC1CO (configuration not stated) , tested on SF-268 CNS.
> 100 µM

Item COc1ccc2c(c1)c1c3n2CCNN=C3CCC1 with SF-268 CNS - TGI?
> 100 µM

Record CCOC(=O)CCC(NC(=O)c1ccc(Nc2nc3ccccc3nc2C(=O)OCC)cc1)C(=O)OCC (configuration not stated) : what is its TGI with SF-268 CNS?
43.7 µM

Provide value of TGI for this record tested with SF-268 CNS: COc1cccc(NC2=C(Cl)C(=O)N(Cc3ccc(Cl)cc3)C2=O)c1
13.9 µM

For the record O=P(O)(O)CN1CCNCCN(CP(=O)(O)O)CC1 , what value of TGI is listed for SF-268 CNS?
> 100 µM

Recall the recorded TGI for COc1ccc2c(c1)/C(=N/OC(C)=O)c1c-2cnc2ccccc12 with SF-268 CNS and state it.
68.7 µM

Form: Entry = Cc1ccc(NC(=O)CC(=O)n2nc(C)c(N=Nc3cccc(C)c3)c2C)cc1 | System = SF-268 CNS | TGI = ____
> 100 µM

# get_value(readout= TGI, system= SF-268 CNS) for CN1CCN([C@H]2C[C@H]3[C@@H]4CC=C5C[C@@H](O)CC[C@]5(C)[C@H]4CC[C@]3(C)[C@H]2O)CC1
> 59.4 µM
